- Tested on: T-cell
- Procedure Text: CD25 cell surface staining on T-cells stimulated with anti-CD3 antibody alone (Biological Example 2)
- Format: cell-based, human
- Test Conditions: T-cell; fold change over baseline; 1 μM Cbl-b inhibitor; primary human total T-cells; read-out: CD25 staining Anti-CD3 stimulation
Property Measured: fold induction at 1 µM

Query: Please give the measured fold induction at 1 µM for this compound: Cc1cc(C(=O)Nc2cccc(C3(Cc4nncn4C)COC3)c2)nc(C2CCC2)n1 [Compound 340]
Result: 0.801 to 1

Query: # input compound: C[C@H](Cc1nncn1C)c1cccc(NC(=O)c2cc(C3(O)COC3)cc(C(F)(F)F)n2)c1 [Compound 190] ; wanted: its fold induction at 1 µM
Result: 0.601 to 0.8

Query: Could you tell me which fold induction at 1 µM is on file for Cc1c[nH]nc1C[C@H](C)c1cccc(N2Cc3c(cccc3C(F)(F)F)C2=O)c1 (single isomer, unassigned) [Compound 270a] ?
Result: 0.601 to 0.8

Query: GET /values?readout=fold induction at 1 µM&item= CNC(=O)COc1ccc2cnc(C(=O)Nc3cccc([C@H](C)Sc4nncn4C)c3)cc2c1 [Compound 306a]
Result: < 0.6

Query: # input compound: C[C@@H](Cc1nncn1C)c1cccc(NC(=O)c2cc(C3CC3)cc(C(F)(F)F)n2)c1 [Compound 322] ; wanted: its fold induction at 1 µM
Result: 0.601 to 0.8

Query: // fold induction at 1 µM lookup, key: CCNc1cc([C@H](C)Cc2nncn2C)cc(N2Cc3c(cccc3C(F)(F)F)C2=O)n1 [Compound 360]
Result: > 1

Query: Endpoint output: fold induction at 1 µM of C[C@H](Cc1nncn1C)c1cc(N[C@H]2CCOC2)nc(N2Cc3c(cccc3C(F)(F)F)C2=O)c1 (stereo in doubt) [Compound 361] . Value?
Result: 0.601 to 0.8

###

Task for the reader: assign each of the following compounds its reported fold induction at 1.11 µM.
- System: primary human total T-cells
- Procedure Text: T-cell activation assessed by cytokine secretion (GM-CSF, IFNγ, TNFα)
- Assay type: cell-based
- Test Conditions: CD3/CD28 stimulation, 1.11 μM, read-out: GM-CSF secretion

Query: Value lookup for fold induction at 1.11 µM; key = COC1CN(Cc2cc3c(c(C(F)(F)F)c2)CN(c2cccc([C@@](C)(F)C(F)(F)c4nncn4C)c2)C3=O)C1
Result: 2.01 to 4

Query: Give the measured fold induction at 1.11 µM of CNCc1ccc(C(=O)Nc2cccc([C@H](C)Cc3nncn3C)c2)nc1C1CC1 .
Result: 2.01 to 4

Query: Recorded fold induction at 1.11 µM for Cn1cnnc1CC1(c2cccc(NC(=O)c3nc4c(C(F)(F)F)cccc4[nH]3)c2)COC1 , please?
Result: 1.51 to 2

Query: Consider the compound C[C@H](Sc1nncn1C)c1cccc(NC(=O)c2cc(C(=O)N3CC[C@H](O)C3)ccn2)c1 and give its measured fold induction at 1.11 µM.
Result: 2.01 to 4

Query: Consider the compound C[C@H](Cc1nncn1C)c1cccc(NC(=O)c2nc(C(F)(F)F)c[nH]2)c1 and give its measured fold induction at 1.11 µM.
Result: 1.51 to 2

###

Would you kindly list fold induction at 1 µM for each of these compounds?
- Tested on: primary human NK cells
- Procedure Text: NK cell activation assessed by cytokine secretion (coculture with K562 NucRed target cells)
- Type: cell-based
- Test Conditions: K562, 1:1 E/T, 1 μM, read-out: TNFα secretion

Query: Which fold induction at 1 µM is reported for this compound? Cn1cnnc1C(F)(F)[C@](C)(F)c1cccc(N2Cc3c(cc(C(=O)N4CC[C@H](O)C4)cc3C(F)(F)F)C2=O)c1 [Compound 438]
Result: 1.01 to 2

Query: Bench note: what fold induction at 1 µM did Cn1cnnc1C(F)(F)[C@](C)(F)c1cccc(N2Cc3c(cc(CN4CC[C@H](F)C4)cc3C(F)(F)F)C2=O)c1 [Compound 447] show?
Result: 2.01 to 5

Query: For the compound shown here, C[C@@H](Sc1nncn1C)c1cccc(NC(=O)c2ccc3ccccc3n2)c1 [Compound 9b] , give the reported fold induction at 1 µM.
Result: < 1

Query: # input compound: C[C@H](Cc1nncn1C)c1cccc(NC(=O)c2ccnc(C(F)(F)F)n2)c1 [Compound 187] ; wanted: its fold induction at 1 µM
Result: < 1

Query: I am curious: what fold induction at 1 µM value has been reported for Cn1cnnc1C(F)(F)[C@](C)(F)c1cccc(N2Cc3c(cc(CN4CCC(F)(F)C4)cc3C(F)(F)F)C2=O)c1 [Compound 448] ?
Result: 1.01 to 2
